Quick record: Ki, UniProtKB Q8II92.

{"columns": ["LINE_NOTATION", "Ki"],
 "data": [
  ["O=c1ccn(CCCCO[Si](c2ccccc2)(c2ccccc2)c2ccccc2)c(=O)[nH]1", "2.2 µM"],
  ["O=c1ccn(CCCCCOC(c2ccccc2)(c2ccccc2)c2ccccc2)c(=O)[nH]1", "2 µM"],
  ["O=C(OCCOCn1ccc(=O)[nH]c1=O)c1ccccc1", "98 µM"],
  ["O=c1ccn(CCCCCCOC(c2ccccc2)(c2ccccc2)c2ccccc2)c(=O)[nH]1", "9.6 µM"],
  ["O=c1ccn(CCCCCCNC(c2ccccc2)(c2ccccc2)c2ccccc2)c(=O)[nH]1", "1.8 µM"]
]}

====

# SYSTEM_NAME: UniProtKB Q8II92
# Sequence (Q8II92 whole entry): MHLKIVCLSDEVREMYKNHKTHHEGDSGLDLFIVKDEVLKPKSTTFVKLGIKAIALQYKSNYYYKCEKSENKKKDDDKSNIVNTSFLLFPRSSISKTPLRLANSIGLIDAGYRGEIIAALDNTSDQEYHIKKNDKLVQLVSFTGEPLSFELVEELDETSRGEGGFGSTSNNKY
pKi: −log10 of the molar value.
Measured pKi values are reported for all entries that follow.

{"columns": ["COMPOUND", "pKi"],
 "data": [
  ["O=c1ccn(COCCOC(c2ccccc2)(c2ccccc2)c2ccccc2)c(=O)[nH]1", 6.15],
  ["O=c1ccn(CCCNC(c2ccccc2)(c2ccccc2)c2ccccc2)c(=O)[nH]1", 6.70],
  ["O=c1ccn(CC(CO)CCOC(c2ccccc2)(c2ccccc2)c2ccccc2)c(=O)[nH]1 (centres undefined)", 5.66],
  ["CC(C)(C)OC(=O)NCC(CCn1ccc(=O)[nH]c1=O)COC(c1ccccc1)(c1ccccc1)c1ccccc1 (centres undefined)", 5.60],
  ["CC(C)(C)[Si](C)(C)OCCOCn1ccc(=O)[nH]c1=O", 4.36],
  ["O=c1ccn(CCCCOC(c2ccccc2)(c2ccccc2)c2ccccc2)c(=O)[nH]1", 5.80],
  ["CC(C)(C)[Si](OCCCCCCn1ccc(=O)[nH]c1=O)(c1ccccc1)c1ccccc1", 5.07],
  ["O=c1ccn(CCCCCCO[Si](c2ccccc2)(c2ccccc2)c2ccccc2)c(=O)[nH]1", 5.77],
  ["O=c1ccn(CCCO[Si](c2ccccc2)(c2ccccc2)c2ccccc2)c(=O)[nH]1", 5.80]
]}

====

# Selectivity index annotations
# SYSTEM_NAME: dUTP pyrophosphatase (Plasmodium falciparum 3D7)
# TEST_DESCRIPTION: Selectivity index, human dUTPase/Plasmodium falciparum dUTPase

{"columns": ["LINE_NOTATION", "Selectivity index"],
 "data": [
  ["O=C(OCCCCCCn1ccc(=O)[nH]c1=O)c1ccccc1", "> 31"],
  ["O=c1ccn(CCCCNC(c2ccccc2)(c2ccccc2)c2ccccc2)c(=O)[nH]1", "> 1110"],
  ["CC(C)(C)[Si](OCCCCCCn1ccc(=O)[nH]c1=O)(c1ccccc1)c1ccccc1", "> 118"],
  ["O=c1ccn(C/C=C\\COC(c2ccccc2)(c2ccccc2)c2ccccc2)c(=O)[nH]1", 4],
  ["O=C(NCCCCn1ccc(=O)[nH]c1=O)OCc1ccccc1", "> 60"],
  ["O=c1ccn(CCCCCNC(c2ccccc2)(c2ccccc2)c2ccccc2)c(=O)[nH]1", "> 233"],
  ["O=c1ccn(CCCCOC(c2ccccc2)(c2ccccc2)c2ccccc2)c(=O)[nH]1", "> 617"],
  ["O=c1ccn([C@H]2C[C@H](O)[C@@H](COC(c3ccccc3)(c3ccccc3)c3ccccc3)O2)c(=O)[nH]1", 10],
  ["O=C(OCCCn1ccc(=O)[nH]c1=O)c1ccccc1", "> 97"],
  ["O=c1ccn(CCCO)c(=O)[nH]1", "> 2"]
]}
